Provide the reported composite z-score of each item.
Test: anti-His antibody binders, primary screen, artefact control for SMM control protein annotation, biochemical, small-molecule microarray, 635 nm fluorescence (AID 1128);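 further: score merges feature fluorescence with signal-to-noise for each printed compound spot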
Details: anti-His Alexa647 antibody binding, higher = more signal

Item CC(CCN1CCc2nc(-c3ccccc3)c(-c3ccccc3)cc2C1)=NOC[C@@H](O)[C@H]1O[C@@H]2OC(C)(C)O[C@@H]2[C@H]1O has what recorded composite z-score? 0.107

Further, for COC(=O)[C@H](C)NC(=O)CCC1CC(OC(=O)NCc2ccc3c(c2)OCO3)CC2(CCCC(COC(=O)NCC3CCCCC3)O2)O1 (some centres undefined) ? 0.807

Next: CCOC(=O)[C@H](CC(C)C)NC(=O)CCC1CC(OC(=O)NCc2cccc3ccccc23)CC2(CCCC(COC(=O)NCCC(C)C)O2)O1 (some centres undefined) -0.121

What about this compound? CC(C)=CCCC(C)=CCON=C1C[C@@H](O)[C@@H](O)[C@@H]2[C@@H]3C(=O)N(c4cccc(Oc5ccccc5)c4)C(=O)[C@@H]3CC[C@@H]12 0.0079
